Molecular target: T1, TCE-12 (anti-CD3 scFv G102A; anti-TROP2 wt)
T1 construct: scFv on the Fab heavy chain
Assay: competition ELISA, TCE on captured CD3
Where no end group is shown, it is not given here.
quantity: pIC50
# pIC50 is unitless: minus log10 of the molar concentration; print number only

Query block: Entry under review: VYCGPEFDESVGCA (cysteine pairing not given here; also: biotinylated, site not given here, mask peptide for the CD3 scFv) [Peptide-73] . Reported pIC50?
Result block: 6.64
